system tested: HRgpA-6H (Porphyromonas gingivalis) (UniProt P28784)
method summary: ELISA, Fab FASEBA supernatant on coated HRgpA-6H
Measured OD450nm accompanies every entry in the list below.
Your answer is read as OD450nm, so omit the unit and give the number.

1) parental mouse (KB001) Fab FASEBA, VL variant H90W (Fab, V domains shown) VH: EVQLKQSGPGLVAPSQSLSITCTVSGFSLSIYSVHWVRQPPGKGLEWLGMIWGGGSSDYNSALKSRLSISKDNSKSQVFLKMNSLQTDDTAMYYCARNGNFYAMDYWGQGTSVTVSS VL: QIVLTQSPAIMSASLGERVTMTCTASSSVSSSFLHWYQQKPGSSPQLWIYSTSNLASGVPARFSGSGSGTSYSLTISSMEAEDAATYYCWQYHHSPYIYTFGGGTKLEIK | 0.763
2) parental mouse (KB001) Fab FASEBA, VL variant A56P (Fab, V domains shown) VH: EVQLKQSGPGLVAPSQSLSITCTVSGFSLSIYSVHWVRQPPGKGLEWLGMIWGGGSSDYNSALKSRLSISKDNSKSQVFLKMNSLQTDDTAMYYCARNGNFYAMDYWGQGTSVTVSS VL: QIVLTQSPAIMSASLGERVTMTCTASSSVSSSFLHWYQQKPGSSPQLWIYSTSNLPSGVPARFSGSGSGTSYSLTISSMEAEDAATYYCHQYHHSPYIYTFGGGTKLEIK | 0.748
3) parental mouse (KB001) Fab FASEBA, VL variant S57E (Fab, V domains shown) VH: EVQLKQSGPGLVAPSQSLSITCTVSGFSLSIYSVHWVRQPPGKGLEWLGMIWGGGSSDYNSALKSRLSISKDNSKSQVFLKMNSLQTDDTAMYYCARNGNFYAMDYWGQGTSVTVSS VL: QIVLTQSPAIMSASLGERVTMTCTASSSVSSSFLHWYQQKPGSSPQLWIYSTSNLAEGVPARFSGSGSGTSYSLTISSMEAEDAATYYCHQYHHSPYIYTFGGGTKLEIK | 0.751
4) parental mouse (KB001) Fab FASEBA, VL variant Y97L (Fab, V domains shown) VH: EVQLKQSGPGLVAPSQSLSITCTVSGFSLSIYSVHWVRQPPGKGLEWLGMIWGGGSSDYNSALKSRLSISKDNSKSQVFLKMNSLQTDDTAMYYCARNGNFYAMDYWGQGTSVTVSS VL: QIVLTQSPAIMSASLGERVTMTCTASSSVSSSFLHWYQQKPGSSPQLWIYSTSNLASGVPARFSGSGSGTSYSLTISSMEAEDAATYYCHQYHHSPLIYTFGGGTKLEIK | 0.739

Now for another entry.
query: Could you share which OD450nm value was measured for parental mouse (KB001) Fab FASEBA, VL variant Y92D (Fab, V domains shown) VH: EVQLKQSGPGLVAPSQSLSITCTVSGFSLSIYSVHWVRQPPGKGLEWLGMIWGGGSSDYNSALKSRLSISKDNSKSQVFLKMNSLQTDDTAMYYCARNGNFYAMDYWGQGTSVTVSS VL: QIVLTQSPAIMSASLGERVTMTCTASSSVSSSFLHWYQQKPGSSPQLWIYSTSNLASGVPARFSGSGSGTSYSLTISSMEAEDAATYYCHQDHHSPYIYTFGGGTKLEIK ?
result: 0.758
